The entries below come with measured Percent JY Aggregation values attached.
molecular target: ICAM-1 expressed on cells (JY cells; stimulated endothelial cells) (UniProt P05362 28-532, limits assumed); experiment: cell-based or functional assay
Sequence (P05362 28-532 limits assumed): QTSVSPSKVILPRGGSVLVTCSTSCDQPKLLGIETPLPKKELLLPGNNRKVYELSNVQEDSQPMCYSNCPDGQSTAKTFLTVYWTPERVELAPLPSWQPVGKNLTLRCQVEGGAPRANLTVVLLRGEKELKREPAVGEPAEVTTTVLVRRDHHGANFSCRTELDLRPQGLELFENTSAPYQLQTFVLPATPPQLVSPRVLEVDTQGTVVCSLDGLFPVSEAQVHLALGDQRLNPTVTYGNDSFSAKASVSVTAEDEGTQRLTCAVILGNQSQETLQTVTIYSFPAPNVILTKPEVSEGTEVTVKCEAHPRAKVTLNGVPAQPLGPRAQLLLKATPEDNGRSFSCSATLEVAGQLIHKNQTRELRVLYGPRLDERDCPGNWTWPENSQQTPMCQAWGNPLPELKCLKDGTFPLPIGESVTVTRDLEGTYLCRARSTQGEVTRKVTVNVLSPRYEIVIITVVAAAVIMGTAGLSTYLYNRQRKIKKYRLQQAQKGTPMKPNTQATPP
Bridge positions count the residues as written; N and C are the ends. Ends that are not written are not given here.
Respond numerically; units are percent and should not be typed.

Consider the worked cases shown below.
[[record]]
binder = "CLARMRSIC (disulfide 1-9) [CLARMRSIC (SEQ ID NO: 35), cyclic disulfide-linked peptide]"
quantity_unit = "percent"
result_value = 69

[[record]]
binder = "CALRMRSIC (disulfide 1-9) [CALRMRSIC (SEQ ID NO: 34), cyclic disulfide-linked peptide]"
quantity_unit = "percent"
result_value = 71

[[record]]
binder = "CLLRARSIC (disulfide 1-9) [CLLRARSIC (SEQ ID NO: 37), cyclic disulfide-linked peptide]"
quantity_unit = "percent"
result_value = 72


Let's switch to this binder now.
Lookup: Quick one: Percent JY Aggregation for CLLRMASIC (disulfide 1-9) [CLLRMASIC (SEQ ID NO: 38), cyclic disulfide-linked peptide] ?
Found: 68
